B1: Twister Ribozyme (parent)
chain: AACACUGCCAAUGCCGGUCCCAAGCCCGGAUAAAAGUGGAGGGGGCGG

variants of: B1; assay: self-cleavage, relative activity (ratio to wild type); higher = more cleavage; co-transcriptional
Item-by-item account of self-cleavage
Just the number, please, no unit after it.

MUTATION STRING	PARAMETER MEASURED	MEASURED
A32C G36U	self-cleavage	0.184
G28U G29U	self-cleavage	0.972
G7A C26U	self-cleavage	0.102

Recorded self-cleavage for C15U C26A , please?
0.126

Field entry: U6C G47C
0.209
